# System: HSV-2
# protocol_details: Viral plaque number-reduction assay, HSV-2
# assay_context: Human alphaherpesvirus 2, read-out: HSV-2 IC50
readout_name: IC50
State the value, then name its unit.

## Task # input compound: CC(C)CCC[C@@H](C)[C@H]1CC[C@H]2[C@@H]3CCC4CC(O[C@@H]5O[C@H](COS(=O)(=O)O)[C@@H](O[C@@H]6O[C@H](COS(=O)(=O)O)[C@@H](OS(=O)(=O)O)[C@H](OS(=O)(=O)O)[C@H]6OS(=O)(=O)O)[C@H](OS(=O)(=O)O)[C@H]5OS(=O)(=O)O)CC[C@]4(C)[C@H]3CC[C@]12C (stereo partly shown) ; wanted: its IC50
## Result 0.43 µg/mL

## Task Return reported IC50; argument: CC(C)CCCC(C)C1CCC2C3CCC4CC(OC5OC(COS(=O)(=O)O)C(OC6OC(COS(=O)(=O)O)C(OS(=O)(=O)O)C(OS(=O)(=O)O)C6OS(=O)(=O)O)C(OS(=O)(=O)O)C5OS(=O)(=O)O)CCC4(C)C3CCC12C (stereo not shown)
## Result 0.43 µg/mL

## Task Param item = `CC(C)CCC[C@@H](C)[C@H]1CC[C@H]2[C@@H]3CC[C@H]4C[C@@H](O[C@H]5O[C@H](COS(=O)(=O)O)[C@@H](OS(=O)(=O)O)[C@H](OS(=O)(=O)O)[C@@H]5O[C@H]5O[C@H](COS(=O)(=O)O)[C@@H](OS(=O)(=O)O)[C@H](OS(=O)(=O)O)[C@@H]5OS(=O)(=O)O)CC[C@]4(C)[C@H]3CC[C@]12C` ; retrieve measured IC50.
## Result 0.7 µg/mL

## Task Reported IC50, compound `CC(C)CCC[C@@H](C)[C@H]1CC[C@H]2[C@@H]3CC[C@H]4C[C@@H](OCc5cn([C@@H]6O[C@H](COS(=O)(=O)O)[C@@H](O[C@H]7O[C@H](COS(=O)(=O)O)[C@@H](OS(=O)(=O)O)[C@H](OS(=O)(=O)O)[C@H]7OS(=O)(=O)O)[C@H](OS(=O)(=O)O)[C@H]6OS(=O)(=O)O)nn5)CC[C@]4(C)[C@H]3CC[C@]12C` : ____
## Result 0.26 µg/mL

## Task Any idea what its IC50 is? The compound is `CC(C)CCC[C@@H](C)[C@H]1CC[C@H]2[C@@H]3CC[C@H]4C[C@@H](O[C@H]5O[C@H](COS(=O)(=O)O)[C@@H](OS(=O)(=O)O)[C@H](OS(=O)(=O)O)[C@@H]5OS(=O)(=O)O)CC[C@]4(C)[C@H]3CC[C@]12C`
## Result 0.28 µg/mL

## Task I am curious: what IC50 value has been reported for CC(C)CCC[C@@H](C)[C@H]1CC[C@H]2[C@@H]3CCC4CC(O[C@@H]5O[C@H](COS(=O)(=O)O)[C@@H](O[C@@H]6O[C@H](COS(=O)(=O)O)[C@H](OS(=O)(=O)O)[C@H](OS(=O)(=O)O)[C@H]6OS(=O)(=O)O)[C@H](OS(=O)(=O)O)[C@H]5OS(=O)(=O)O)CC[C@]4(C)[C@H]3CC[C@]12C (stereo partly shown) ?
## Result 0.45 µg/mL

## Task Consider the compound CC(C)CCCC(C)C1CCC2C3CCC4CC(OCc5cn(C6OC(COS(=O)(=O)O)C(OC7OC(COS(=O)(=O)O)C(OS(=O)(=O)O)C(OS(=O)(=O)O)C7OS(=O)(=O)O)C(OS(=O)(=O)O)C6OS(=O)(=O)O)nn5)CCC4(C)C3CCC12C (stereo not shown) and give its measured IC50.
## Result 0.27 µg/mL

* * *

Please go through the items and note down their IC50.
# Test system: HUVEC proliferation induced by FGF-2
# protocol_details: Growth factor induced endothelial cell proliferation assay, FGF-2
# Type: cell-based, human
# assay_context: Homo sapiens, HUVEC, 72 h; read-out: FGF-2 (IC50) inhibition of HUVEC proliferation
Your answer is read as µM, so omit the unit and give the number.

## Task Which measured IC50 value corresponds to `CC(C)CCC[C@@H](C)[C@H]1CC[C@H]2[C@@H]3CC[C@H]4C[C@@H](OCc5cn([C@@H]6O[C@H](COS(=O)(=O)O)[C@@H](O[C@H]7O[C@H](COS(=O)(=O)O)[C@@H](OS(=O)(=O)O)[C@H](OS(=O)(=O)O)[C@H]7OS(=O)(=O)O)[C@H](OS(=O)(=O)O)[C@H]6OS(=O)(=O)O)nn5)CC[C@]4(C)[C@H]3CC[C@]12C` ?
## Result 4.17

## Task Name the recorded IC50 for CC(C)CCCC(C)C1CCC2C3CCC4CC(OCc5cn(C6OC(COS(=O)(=O)O)C(OC7OC(COS(=O)(=O)O)C(OS(=O)(=O)O)C(OS(=O)(=O)O)C7OS(=O)(=O)O)C(OS(=O)(=O)O)C6OS(=O)(=O)O)nn5)CCC4(C)C3CCC12C (stereo not drawn) .
## Result 2.43

## Task Which IC50 is reported for this molecule? `CC(C)CCC[C@@H](C)[C@H]1CC[C@H]2[C@@H]3CC[C@H]4C[C@@H](O[C@H]5O[C@H](COS(=O)(=O)O)[C@@H](OS(=O)(=O)O)[C@H](OS(=O)(=O)O)[C@@H]5O[C@H]5O[C@H](COS(=O)(=O)O)[C@@H](OS(=O)(=O)O)[C@H](OS(=O)(=O)O)[C@@H]5OS(=O)(=O)O)CC[C@]4(C)[C@H]3CC[C@]12C`
## Result 2.22

## Task # IC50 lookup, item `CC(C)CCC[C@@H](C)[C@H]1CC[C@H]2[C@@H]3CC[C@H]4C[C@@H](O[C@H]5O[C@H](COS(=O)(=O)O)[C@@H](OS(=O)(=O)O)[C@H](OS(=O)(=O)O)[C@@H]5OS(=O)(=O)O)CC[C@]4(C)[C@H]3CC[C@]12C`
## Result 2.9

## Task Record request: IC50 value, item CC(C)CCC[C@@H](C)[C@H]1CC[C@H]2[C@@H]3CCC4CC(O[C@@H]5O[C@H](COS(=O)(=O)O)[C@@H](O[C@@H]6O[C@H](COS(=O)(=O)O)[C@@H](OS(=O)(=O)O)[C@H](OS(=O)(=O)O)[C@H]6OS(=O)(=O)O)[C@H](OS(=O)(=O)O)[C@H]5OS(=O)(=O)O)CC[C@]4(C)[C@H]3CC[C@]12C (stereo partly drawn)
## Result 5.59

* * *

# Test system: pooled normal human plasma
# protocol_details: Anticoagulant activity, APTT
# assay_context: 0.1 mg/mL in normal pooled human plasma
Answer each item with its documented APTT.
The figure you give is taken to be in s; do not add the unit.

## Task I would be grateful if you could share the reported APTT for CCCCCCCCCCCCCCCCCC(=O)NCCCOC1OC(COS(=O)(=O)O)C(OS(=O)(=O)O)C(OS(=O)(=O)O)C1OC1OC(COS(=O)(=O)O)C(OS(=O)(=O)O)C(OC2OC(COS(=O)(=O)O)C(OS(=O)(=O)O)C(OC3OC(COS(=O)(=O)O)C(OS(=O)(=O)O)C(OS(=O)(=O)O)C3OS(=O)(=O)O)C2OS(=O)(=O)O)C1OS(=O)(=O)O (stereo not drawn) [Compound 24] .
## Result 68.1

## Task For the compound CC(C)CCC[C@@H](C)[C@H]1CC[C@H]2[C@@H]3CC[C@H]4C[C@@H](OCc5cn([C@@H]6O[C@H](COS(=O)(=O)O)[C@@H](O[C@H]7O[C@H](COS(=O)(=O)O)[C@@H](OS(=O)(=O)O)[C@H](OS(=O)(=O)O)[C@H]7OS(=O)(=O)O)[C@H](OS(=O)(=O)O)[C@H]6OS(=O)(=O)O)nn5)CC[C@]4(C)[C@H]3CC[C@]12C [Compound 97] , what APTT is on record?
## Result 40.3

## Task Which APTT value belongs to CC(C)CCC[C@@H](C)[C@H]1CC[C@H]2[C@@H]3CCC4CC(O[C@H]5O[C@H](COS(=O)(=O)[O-])[C@@H](OS(=O)(=O)[O-])[C@H](O[C@H]6O[C@H](COS(=O)(=O)[O-])[C@@H](OS(=O)(=O)[O-])[C@H](O[C@H]7O[C@H](COS(=O)(=O)[O-])[C@@H](OS(=O)(=O)[O-])[C@H](OS(=O)(=O)[O-])[C@@H]7OS(=O)(=O)[O-])[C@@H]6OS(=O)(=O)[O-])[C@@H]5OS(=O)(=O)[O-])CC[C@]4(C)[C@H]3CC[C@]12C.[Na+].[Na+].[Na+].[Na+].[Na+].[Na+].[Na+].[Na+].[Na+].[Na+] (stereo partly drawn) [Compound 56] ?
## Result 58.5

* * *

# Test system: RSV
# protocol_details: Anti-RSV screening assay (viral plaques)
# Assay type: cell-based
# assay_context: 100 μg/mL, viral plaques relative to mock treated controls
Provide the recorded Residual infectivity (%) RSV for the entries that follow.
Kindly provide the numeric value in % only, without the unit symbol.

## Task # query: Residual infectivity (%) RSV | item CC(C)CCCC(C)C1CCC2C3CCC4CC(OC5OC(COS(=O)(=O)O)C(OS(=O)(=O)O)C(OS(=O)(=O)O)C5OC5OC(COS(=O)(=O)O)C(OS(=O)(=O)O)C(OC6OC(COS(=O)(=O)O)C(OS(=O)(=O)O)C(OC7OC(COS(=O)(=O)O)C(OS(=O)(=O)O)C(OS(=O)(=O)O)C7OS(=O)(=O)O)C6OS(=O)(=O)O)C5OS(=O)(=O)O)CCC4(C)C3CCC12C (stereo not shown) [Compound 20] | system: RSV
## Result 0

## Task Return Residual infectivity (%) RSV measured with RSV given this compound: O=S(=O)(O)OCC1OC(OC2C(OCCCCCCCCCCCCn3cc(-c4ccccc4)nn3)OC(COS(=O)(=O)O)C(OS(=O)(=O)O)C2OS(=O)(=O)O)C(OS(=O)(=O)O)C(OC2OC(COS(=O)(=O)O)C(OS(=O)(=O)O)C(OC3OC(COS(=O)(=O)O)C(OS(=O)(=O)O)C(OC4OC(COS(=O)(=O)O)C(OS(=O)(=O)O)C(OS(=O)(=O)O)C4OS(=O)(=O)O)C3OS(=O)(=O)O)C2OS(=O)(=O)O)C1OS(=O)(=O)O (stereo not shown) [Compound 8]
## Result 3

## Task Could you share what Residual infectivity (%) RSV was measured for CCCCCCCCCCCCOC1OC(COS(=O)(=O)O)C(OS(=O)(=O)O)C(OS(=O)(=O)O)C1OC1OC(COS(=O)(=O)O)C(OS(=O)(=O)O)C(OC2OC(COS(=O)(=O)O)C(OS(=O)(=O)O)C(OC3OC(COS(=O)(=O)O)C(OS(=O)(=O)O)C(OC4OC(COS(=O)(=O)O)C(OS(=O)(=O)O)C(OS(=O)(=O)O)C4OS(=O)(=O)O)C3OS(=O)(=O)O)C2OS(=O)(=O)O)C1OS(=O)(=O)O (stereo not shown) [Compound 4] , tested on RSV?
## Result 0

## Task Look up Residual infectivity (%) RSV with RSV for this compound: O=S(=O)(O)OCC1OC(OC2C(OCCCCCCCCCCCCn3cc(-c4cccc5ccccc45)nn3)OC(COS(=O)(=O)O)C(OS(=O)(=O)O)C2OS(=O)(=O)O)C(OS(=O)(=O)O)C(OC2OC(COS(=O)(=O)O)C(OS(=O)(=O)O)C(OC3OC(COS(=O)(=O)O)C(OS(=O)(=O)O)C(OC4OC(COS(=O)(=O)O)C(OS(=O)(=O)O)C(OS(=O)(=O)O)C4OS(=O)(=O)O)C3OS(=O)(=O)O)C2OS(=O)(=O)O)C1OS(=O)(=O)O (stereo not shown) [Compound 11]
## Result 0
